molecular target: Vascular endothelial growth factor receptor (Homo sapiens, UniProt P17948+P35916+P35968); experiment: Inhibition of human endothelial cell growth stimulate by vascular endothelial growth factor
Test Readout: IC50 (nM)

COc1cc2c(Nc3ccc(Br)cc3F)ncnc2cc1OC[C@@H]1CCCN(C)C1 : 60
COc1cc2c(Nc3ccc(Cl)cc3F)ncnc2cc1OCCCN1CCN(C)CC1.Cl : 50

a: COc1cc2c(Nc3cc(O)c(Cl)cc3F)ncnc2cc1OCC1CCN(C)CC1.Cl
b: COc1cc2c(Nc3ccc(Cl)cc3F)ncnc2cc1OCC1CCN(C)CC1.Cl
Of a and b , whose reported IC50 is numerically smaller? // respond with label for picked entry
a
(a: 3 nM, b: 50 nM)
